target: UniProtKB P25099; assay: Intrinsic activity for maximum stimulation of [35S]GTP-gamma-S, binding to adenosine A1 receptor in rat brain membranes; assay type: functional, cell membranes
Recorded measurements of Activity, one per entry
Kindly answer with a numeric value in %, unit omitted.

Worked examples, 2 molecules total:
Ask: Entry under review: `OC[C@H]1O[C@@H](n2cnc3c(NC4CCCC4)ncnc32)[C@H](O)[C@@H]1O` . Reported Activity?
Reply: 100

Ask: Reported Activity, molecule `CNC[C@H]1O[C@@H](n2cnc3c(NC4CCCC4)ncnc32)[C@H](O)[C@@H]1O` : ____
Reply: 96.4

Further cases:
Ask: // Activity lookup, key: `CC(C)CSC[C@H]1O[C@@H](n2cnc3c(NC4CCCC4)ncnc32)[C@H](O)[C@@H]1O`
Reply: 85.3

Ask: For the molecule shown here, `CCCSC[C@H]1O[C@@H](n2cnc3c(NC4CCCC4)ncnc32)[C@H](O)[C@@H]1O` , give the reported Activity.
Reply: 84.1

Ask: Reported Activity, molecule `C[Se]C[C@H]1O[C@@H](n2cnc3c(NC4CCCC4)ncnc32)[C@H](O)[C@@H]1O` : ____
Reply: 50.3

Ask: Request the reported Activity associated with `CCCNC[C@H]1O[C@@H](n2cnc3c(NC4CCCC4)ncnc32)[C@H](O)[C@@H]1O`
Reply: 73

Ask: What Activity value was documented for this molecule, `O[C@@H]1[C@H](O)[C@@H](CCl)O[C@H]1n1cnc2c(NC3CCCC3)ncnc21` ?
Reply: 88

Ask: Can you share its Activity? I mean this molecule: `CCSC[C@H]1O[C@@H](n2cnc3c(NC4CCCC4)ncnc32)[C@H](O)[C@@H]1O`
Reply: 65.6

Ask: Report Activity for `CSC[C@H]1O[C@@H](n2cnc3c(NC4CCCC4)ncnc32)[C@H](O)[C@@H]1O` please.
Reply: 40.2

###

target: UniProt P25099; experiment: Binding affinity against adenosine A1 receptor using [3H]DPCPX in rat cortical membranes in the presence of GTP.; format: cell membranes
endpoint_name: pKi
pKi is defined as minus the log10 of a concentration measured in mol/L.

Ask: Returns the measured pKi for the input compound. Input: `CCCNC[C@H]1O[C@@H](n2cnc3c(NC4CCCC4)ncnc32)[C@H](O)[C@@H]1O`
Reply: 4.84

Ask: Quick check: pKi of `CSC[C@H]1O[C@@H](n2cnc3c(NC4CCCC4)ncnc32)[C@H](O)[C@@H]1O` ?
Reply: 6.70

Ask: GET /values?readout=pKi&item= `CCCSC[C@H]1O[C@@H](n2cnc3c(NC4CCCC4)ncnc32)[C@H](O)[C@@H]1O`
Reply: 6.65

Ask: pKi lookup needed for `CCNC[C@H]1O[C@@H](n2cnc3c(NC4CCCC4)ncnc32)[C@H](O)[C@@H]1O` , thanks.
Reply: 5.07

Ask: Fill in the blank: the reported pKi of `C[Se]C[C@H]1O[C@@H](n2cnc3c(NC4CCCC4)ncnc32)[C@H](O)[C@@H]1O` is ____.
Reply: 6.78

More entries:
Ask: Dear colleague, I am looking for the recorded pKi of the following compound: `CC(C)CSC[C@H]1O[C@@H](n2cnc3c(NC4CCCC4)ncnc32)[C@H](O)[C@@H]1O`
Reply: 6.83

Ask: Find the recorded pKi belonging to `CCSC[C@H]1O[C@@H](n2cnc3c(NC4CCCC4)ncnc32)[C@H](O)[C@@H]1O` and report it.
Reply: 6.89

Ask: # lookup: pKi of `O[C@@H]1[C@H](O)[C@@H](CCl)O[C@H]1n1cnc2c(NC3CCCC3)ncnc21`
Reply: 7.21

Ask: Please report the recorded pKi for `CNC[C@H]1O[C@@H](n2cnc3c(NC4CCCC4)ncnc32)[C@H](O)[C@@H]1O` .
Reply: 5.59

Each recorded value in this set is attributed to ChEMBL document CHEMBL1131197.
